Let's look at some compounds and their measured absorbance change per minute (sensitivity).
# Subject of test: Lp-PLA2 (Homo sapiens)
# Construct: Individual serum No. 16, individual serum No. 78; from tissue; host or cells: serum and plasma (individual sera, pooled sera, heparin and citrated pooled plasma)
# Sequence (Q13093 22-441): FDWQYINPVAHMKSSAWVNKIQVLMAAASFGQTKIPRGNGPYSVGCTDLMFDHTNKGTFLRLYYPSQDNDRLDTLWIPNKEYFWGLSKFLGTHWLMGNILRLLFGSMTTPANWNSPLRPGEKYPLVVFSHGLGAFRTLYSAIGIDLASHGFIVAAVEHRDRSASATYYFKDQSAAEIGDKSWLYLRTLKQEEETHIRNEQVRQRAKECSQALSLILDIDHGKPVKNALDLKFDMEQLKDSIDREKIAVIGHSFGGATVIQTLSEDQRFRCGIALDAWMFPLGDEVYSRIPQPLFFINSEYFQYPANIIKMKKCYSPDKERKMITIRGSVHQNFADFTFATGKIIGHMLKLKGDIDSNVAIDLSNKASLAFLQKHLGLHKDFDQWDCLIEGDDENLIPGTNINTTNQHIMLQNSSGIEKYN
# Method: Lp-PLA2 activity measurement in serum/plasma with reagents of the invention (PAF substrate, lyso-PAF-PLD, choline oxidase, peroxidase colorimetry)
# Assay type: biochemical
# Measurement conditions: Example 4; 50 mM buffer pH 7.5 in R1 and R2; sample Individual serum 16
Readout name: absorbance change per minute (sensitivity)

Compound	Subject of test	Value
O=S(=O)(O)CCN1CCN(CCS(=O)(=O)O)CC1 [PIPES]	Lp-PLA2 (Homo sapiens)	38.2 ΔmAbs/min
NC(CO)(CO)CO [Tris, 2-Amino-2-hydroxymethyl-1,3-propanediol]	Lp-PLA2 (Homo sapiens)	42.3 ΔmAbs/min
O=S(=O)(O)CCNC(CO)(CO)CO [TES]	Lp-PLA2 (Homo sapiens)	32.3 ΔmAbs/min
O=S(=O)(O)CCN1CCN(CCO)CC1 [HEPES]	Lp-PLA2 (Homo sapiens)	32.6 ΔmAbs/min
O=S(=O)(O)CCCN1CCOCC1 [MOPS, 3-Morpholinopropanesulfonic acid]	Lp-PLA2 (Homo sapiens)	34.7 ΔmAbs/min
O=P(O)(O)O [Pi-K, potassium phosphate]	Lp-PLA2 (Homo sapiens)	36.0 ΔmAbs/min
